- assay.system: full length human TREX1 (Homo sapiens)
- Construct: N-terminally His-Tev tagged full length human TREX1; His-Tev (His tag with TEV protease site) (N); made in house; host or cells: E. coli
- Sequence (Q9NSU2 whole entry): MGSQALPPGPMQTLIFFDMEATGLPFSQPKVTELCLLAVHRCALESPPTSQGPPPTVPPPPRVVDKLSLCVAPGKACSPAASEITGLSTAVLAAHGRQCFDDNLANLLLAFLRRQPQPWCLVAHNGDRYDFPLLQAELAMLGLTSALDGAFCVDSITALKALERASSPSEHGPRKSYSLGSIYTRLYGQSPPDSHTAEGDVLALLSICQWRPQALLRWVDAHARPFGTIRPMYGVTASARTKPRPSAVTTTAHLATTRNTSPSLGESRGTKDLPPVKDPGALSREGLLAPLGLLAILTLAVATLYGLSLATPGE
- protocol: TREX1 Biochemical Assay (fluorescence assay, degradation of dsDNA substrate)
- applied.conditions: 150 pM TREX1, 60 nM dsDNA substrate, 25 minutes at room temperature; read-out: hTREX1 EC50
# EC50 per record follows

A selection of reference data follows.
compound: O=C(O)c1ncc(CN(Cc2cccc(Cl)c2Cl)C(=O)c2cc(F)cc(F)c2)cc1Cl [Compound 204]
assay.system: full length human TREX1 (Homo sapiens)
EC50: 0.1 to 1 µM
--
compound: Cc1cccc(CN(Cc2cccnc2)C(=O)c2cccc(F)c2)c1Cl [Compound 135]
assay.system: full length human TREX1 (Homo sapiens)
EC50: 1 to 10 µM
--
compound: O=C(c1ncccn1)N(Cc1cccnc1)Cc1ccc(Cl)cc1Cl [Compound 102]
assay.system: full length human TREX1 (Homo sapiens)
EC50: > 10 µM
--
compound: O=C(c1ccc(Oc2ccc(Cl)cc2)cc1)N(Cc1cccnc1)Cc1cc(Cl)cc(Cl)c1 [Compound 59]
assay.system: full length human TREX1 (Homo sapiens)
EC50: > 10 µM
--
compound: CC(C)(C)c1ccc(C(=O)N(Cc2cccnc2)Cc2ccc(Cl)cc2Cl)cc1 [Compound 82]
assay.system: full length human TREX1 (Homo sapiens)
EC50: > 10 µM

Give its EC50 value. Item: O=C(c1cccc(F)c1)N(Cc1cccnc1)[C@@H](CO)c1ccc(Cl)cc1Cl (single isomer, unassigned) [Compound 161]
> 10 µM

Request: C[C@@H](c1ccc(C(N)=O)cc1Cl)N(Cc1cccnc1)C(=O)c1cccc(F)c1 (single isomer, unassigned) [Compound 164]
> 10 µM

Request: O=C(O)c1cc(CO)c(CN(Cc2cccc(Cl)c2Cl)C(=O)c2cc(F)cc(F)c2)cn1 [Compound 206]
< 0.1 µM

Request: O=C(C1CCC(O)CC1)N(Cc1cccnc1)Cc1ccc(Cl)cc1Cl (stereo not shown) [Compound 86]
> 10 µM

Request: O=C(c1cccc(F)c1)N(CCc1ccc(Cl)cc1Cl)Cc1cccnc1 [Compound 133]
> 10 µM

Request: O=C(c1cc(Cl)c(O)c(Cl)c1)N(Cc1cccnc1)Cc1cc(Cl)cc(Cl)c1 [Compound 49]
> 10 µM

Request: O=C(c1cc(F)c(F)c(F)c1)N(Cc1cccnc1)Cc1ccc(Cl)cc1Cl [Compound 119]
0.1 to 1 µM

Request: CS(=O)(=O)NC(=O)c1ccc(CN(Cc2cccc(Cl)c2Cl)C(=O)c2cccc(F)c2)cn1 [Compound 259]
1 to 10 µM

Request: N#CC[C@H](c1cccc(Cl)c1Cl)N(Cc1cccnc1)C(=O)c1cc(F)cc(F)c1 [Compound 235]
< 0.1 µM

Request: C[C@@H](c1ccc(Cl)cc1Cl)N(Cc1cccnc1)C(=O)c1cccc(F)c1 [Compound 156]
> 10 µM

Request: Cc1ncc(CN(Cc2ccc(Cl)cc2Cl)C(=O)c2cccc(F)c2)cn1 [Compound 108]
> 10 µM

====

- assay.system: full length human TREX1 (Homo sapiens)
- Construct: N-terminally His-Tev tagged full length human TREX1; His-Tev (His tag with TEV protease site) (N)
- protocol: TREX1 Biochemical Assay (fluorescence assay, degradation of dsDNA substrate)
- applied.conditions: 150 pM TREX1, 60 nM dsDNA substrate, 25 minutes at room temperature; read-out: hTREX1 EC50
# EC50 per record follows

A selection of reference data follows.
chem.smiles: O=C(O)c1ccc(CN(Cc2ccccc2Cl)C(=O)c2cc(F)cc(F)c2)cn1
value: < 0.1 µM

chem.smiles: Cc1cc(C(=O)N(Cc2cccnc2)Cc2ccc(Cl)cc2Cl)ccc1Br
value: > 10 µM

chem.smiles: COc1cc(C(=O)N(Cc2cccnc2)Cc2ccc(Cl)cc2Cl)ccc1F
value: > 10 µM

chem.smiles: O=C(c1ccc(Oc2ccc(Br)cc2)cc1)N(Cc1cccnc1)Cc1cc(Cl)cc(Cl)c1
value: > 10 µM

chem.smiles: O=C(c1cc(Cl)c(O)c(Cl)c1)N(Cc1cccnc1)Cc1ccc(Cl)cc1Cl
value: > 10 µM

Give its EC50 value. Item: "O=C(c1ccc(Cl)cc1)N(Cc1cccnc1)Cc1ccc(Cl)cc1Cl"
> 10 µM

Request: "C[C@@H](c1cccc(Cl)c1Cl)N(Cc1ccc(C(=O)O)nc1)C(=O)c1cc(F)cc(F)c1"
< 0.1 µM

Request: "Cc1cc(C(=O)N(Cc2cccnc2)Cc2cc(Cl)cc(Cl)c2)cc(C)c1O"
> 10 µM

====

# EC50 per record follows
- assay.system: human TREX2 (residues M44-A279) (Homo sapiens)
- Construct: human TREX2 (residues M44-A279, expressed in E. coli); His-Tev (His tag with TEV protease site) (N)
- protocol: TREX2 Biochemical Assay (fluorescence assay, degradation of dsDNA substrate)
- applied.conditions: 2.5 nM TREX2, 60 nM dsDNA substrate, 25 minutes at room temperature; read-out: hTREX2 EC50

A selection of reference data follows.
chem.smiles: O=C(c1ccc(Br)cc1Cl)N(Cc1cccnc1)Cc1cc(Cl)cc(Cl)c1
assay.system: human TREX2 (residues M44-A279) (Homo sapiens)
EC50: > 100 µM

chem.smiles: CN(C)c1cc(C(=O)O)ncc1CN(Cc1cccc(Cl)c1Cl)C(=O)c1cc(F)cc(F)c1
assay.system: human TREX2 (residues M44-A279) (Homo sapiens)
EC50: 10 to 100 µM

chem.smiles: O=C(c1cccc(Cl)c1)N(Cc1cccnc1)Cc1cc(Cl)cc(Cl)c1
assay.system: human TREX2 (residues M44-A279) (Homo sapiens)
EC50: > 100 µM

chem.smiles: O=C(O)CC[C@@H](c1ccccc1Cl)N(Cc1cccnc1)C(=O)c1cc(F)cc(F)c1
assay.system: human TREX2 (residues M44-A279) (Homo sapiens)
EC50: 10 to 100 µM

chem.smiles: Cc1ncc(C(=O)N(Cc2cccnc2)Cc2ccc(Cl)cc2Cl)cn1
assay.system: human TREX2 (residues M44-A279) (Homo sapiens)
EC50: > 100 µM

chem.smiles: COc1cccc(CN(Cc2ccc(NC(C)=O)nc2)C(=O)c2cccc(F)c2)c1Cl
assay.system: human TREX2 (residues M44-A279) (Homo sapiens)
EC50: > 100 µM

Give its EC50 value. Item: "O=C(c1ccc(F)cn1)N(Cc1cccnc1)Cc1ccc(Cl)cc1Cl"
> 100 µM

Request: "COc1cc(C(=O)N(Cc2cccnc2)Cc2cc(Cl)cc(Cl)c2)cc(Cl)c1O"
> 100 µM

====

- assay.system: human TREX2 (residues M44-A279) (Homo sapiens)
- Construct: human TREX2 (residues M44-A279, expressed in E. coli); His-Tev (His tag with TEV protease site) (N)
- protocol: TREX2 Biochemical Assay (fluorescence assay, degradation of dsDNA substrate)
- applied.conditions: 2.5 nM TREX2, 60 nM dsDNA substrate, 25 minutes at room temperature; read-out: hTREX2 EC50
# EC50 per record follows

A selection of reference data follows.
chem.smiles: CN(C)c1cc(CN(Cc2cccc(Cl)c2Cl)C(=O)c2cc(F)cc(F)c2)cnc1C(=O)O
value: 10 to 100 µM
--
chem.smiles: O=C(c1ccc(Br)cc1)N(Cc1cccnc1)Cc1ccc(Cl)cc1Cl
value: > 100 µM
--
chem.smiles: O=C(c1cc(Br)c(O)c(Br)c1)N(Cc1cccnc1)Cc1cc(Cl)cc(Cl)c1
value: 10 to 100 µM

Kindly review the next compound as well.
Give its EC50 value. Item: "O=C(O)c1ccc(CN(Cc2ccc(Cl)cc2Cl)C(=O)c2cccc(F)c2)cn1"
10 to 100 µM

====

# pEC50 per record follows
- assay.system: human TREX2 (residues M44-A279) (Homo sapiens, UniProt Q9BQ50)
- Construct: human TREX2 (residues M44-A279, expressed in E. coli); His-Tev (His tag with TEV protease site) (N); made in house; host or cells: E. coli
- Sequence (Q9BQ50 whole entry, the tested form may be a part): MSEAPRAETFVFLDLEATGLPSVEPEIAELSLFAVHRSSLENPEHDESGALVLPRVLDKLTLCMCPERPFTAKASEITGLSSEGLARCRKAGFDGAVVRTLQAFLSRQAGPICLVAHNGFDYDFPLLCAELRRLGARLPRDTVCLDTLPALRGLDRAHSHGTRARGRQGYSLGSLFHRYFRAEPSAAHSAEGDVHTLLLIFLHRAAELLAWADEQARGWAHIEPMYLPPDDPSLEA
- protocol: TREX2 Biochemical Assay (fluorescence assay, degradation of dsDNA substrate)
- applied.conditions: 2.5 nM TREX2, 60 nM dsDNA substrate, 25 minutes at room temperature; read-out: hTREX2 EC50
pEC50: −log10 of the molar value.

A selection of reference data follows.
molecule: O=C(O)c1ccc(CN(Cc2ccc3ncccc3c2Cl)C(=O)c2cc(F)cc(F)c2)cn1
value: 5.00 to 6.00

molecule: COc1cccc(C(=O)N(Cc2cccnc2)Cc2cc(Cl)cc(Cl)c2)c1
value: < 4.00

molecule: O=C(c1ccccc1)N(Cc1cccnc1)Cc1cc(Cl)cc(Cl)c1
value: < 4.00

molecule: O=C(O)c1ccc(CN(Cc2cncc(Cl)c2Cl)C(=O)c2cc(F)cc(F)c2)cn1
value: 5.00 to 6.00

molecule: COc1cc(C(=O)O)ncc1CN(Cc1cccc(Cl)c1Cl)C(=O)c1cc(F)cc(F)c1
value: > 6.00

Give its pEC50 value. Item: "Cc1cc(C(=O)O)ncc1CN(Cc1cccc(Cl)c1Cl)C(=O)c1cc(F)cc(F)c1"
> 6.00

Request: "O=C(O)c1ncc(CN(Cc2cccc(Cl)c2Cl)C(=O)c2cc(F)cc(F)c2)cc1Cl"
5.00 to 6.00

Request: "O=C(c1cccc(F)c1)N(Cc1cccnc1)Cc1cccc(Cl)c1Cl"
4.00 to 5.00

Request: "COc1ccccc1CN(Cc1cccnc1)C(=O)c1cccc(F)c1"
< 4.00

Request: CC(C)[C@H](c1ccc(Cl)cc1Cl)N(Cc1cccnc1)C(=O)c1cccc(F)c1 (single isomer, unassigned)
4.00 to 5.00

Request: O=C(c1cccc(F)c1)N(Cc1cccnc1)[C@H](CO)c1ccc(Cl)cc1Cl (single isomer, unassigned)
4.00 to 5.00

These data points were gathered from patent US20230233541A1.
